Biological target: Substance P 1-7 binding site
Assay: Binding affinity to SP1-7 binding site
MEASURED ENDPOINT: Ki (nM)
Give the value, in units of nM, as a plain number.

Incoming: Please look at this compound and report its Ki: `NC(=O)[C@H](Cc1ccccc1)NC(=O)OCc1ccccc1`
Outgoing: 5.2

---

Assignment: determine reported pIC50 for the given molecules.
Biological target: Substance P 1-7 binding site
Test: Displacement of [3H]-SP1-7 from SP1-7 binding site by scintillation counting analysis
Formally, pIC50 is defined as -log10 of the concentration c, with c in mol/L.

Incoming: Write down pIC50 measured for item `O=C(N[C@@H](Cc1ccccc1)c1nnc(-c2ccccc2)o1)OCc1ccccc1`
Outgoing: 8.05

Incoming: Let me know recorded pIC50 for `O=C(N[C@@H](Cc1ccccc1)C(=O)NNC(=O)c1ccccc1)OCc1ccccc1` , thanks.
Outgoing: 8.19

Incoming: Tell me pIC50 reported for `N#CNC(=O)[C@H](Cc1ccccc1)NC(=O)OCc1ccccc1`
Outgoing: 7.77

Incoming: Specify measured pIC50 for `NC(=O)[C@H](Cc1ccccc1)NC(=O)OCc1ccccc1` .
Outgoing: 8.21

---

Molecular target: Substance P 1-7 binding site
Assay: Displacement of [3H]-SP1-7 from SP1-7 binding site by scintillation counting analysis
MEASURED ENDPOINT: Ki (nM)
Use nM as the unit, but write only the number.

Incoming: # return recorded Ki for input `NC(=O)[C@H](Cc1ccccc1)NC(=O)OCc1ccccc1`
Outgoing: 5.2
